Tested on: CAKI-1 renal
Experiment: NCI tumour cell line growth inhibition, 48 h
quantity: TGI

Known TGI results, listed for orientation:
COc1cc(OC)c(/C=N\Nc2nc3ccccc3c(=O)n2-c2ccccc2)c(OC)c1; 38.3 µM
CC(C)C(/C=C/c1ccc(Cl)cc1)=N\NC(=O)N/N=C(/C=C/c1ccc(Cl)cc1)C(C)C; 35.6 µM
NS(=O)(=O)c1ccc(NC(=O)c2ccc3nc4ccccc4c(Nc4ccc(S(N)(=O)=O)cc4)c3c2)cc1; > 100 µM
CCCC(C(=O)OC)C1N=C(NC#N)N(Cc2ccccc2)C1=O (configuration not stated); > 100 µM

Prompt line: Please report the recorded TGI for COc1cc(CC(=O)O)c([N+](=O)[O-])cc1OC .
Response line: > 100 µM

Prompt line: Please report the recorded TGI for CC#CC#C/C=C1\C=CC2(OC=CC2O)O1 (configuration not stated) .
Response line: > 23.3 µM

Prompt line: Please report the recorded TGI for Cc1c(Cl)c(C)c(Cl)c(O)c1Cl .
Response line: 62.7 µM

----------
Tested on: SF-295 CNS
Test: NCI tumour cell line growth inhibition, 48 h; in the data active = GI50 below about 0.43 µM; inactive = the rest
Select the correct class. Options are True = active, False = inactive and nothing else.

Example results:
C=CC(=O)N1CCC[C@@H](n2nc(-c3ccc(Oc4ccccc4)cc3)c3c(N)ncnc32)C1; False
O=C(CCN1CCCN(c2cnc3ccccc3n2)CC1)c1csc2ccccc12; False
CO/C(=C1/NC(=O)C(Cc2ccc(O)c(Br)c2)N(C)C(=O)C(C)NC(=O)CCC/C=C(\C)CCC(C)OC1=O)c1ccccc1 (stereo not drawn); True
Cn1c(=O)c(Oc2ccc(F)cc2F)cc2cnc(NCC(C)(C)O)nc21; False

Prompt line: So what was the verdict on CC(=O)Nc1cc2c3c(cccc3c1)-c1ccccc1-2 in this test?
Response line: False

Prompt line: So what was the verdict on COC(=O)Nc1nc2ccc(C(=O)c3ccc(F)cc3)cc2[nH]1 in this test?
Response line: True

Prompt line: So what was the verdict on Nc1n[nH]c2ccc([C@@H]3Nc4ccc5cn[nH]c5c4[C@H]4C5CCC(C5)[C@@H]34)cc12 (stereo partly drawn) in this test?
Response line: True

Prompt line: So what was the verdict on C[C@]12CC[C@H]3[C@@H](CC[C@]4(O)C[C@@H](O[C@@H]5O[C@H](CO)[C@@H](O[C@@H]6OC[C@@H](O)[C@H](O)[C@H]6O)[C@H](O)[C@H]5O)CC[C@]34C=O)[C@@]1(O)CC[C@@H]2C1=CC(=O)OC1 in this test?
Response line: False

Prompt line: So what was the verdict on O=C(N/N=C/c1ccncc1)c1ccc(F)cc1 in this test?
Response line: False

Prompt line: So what was the verdict on COc1ncc(-c2ccc3nccc(C#CCCCCC(=O)NO)c3c2)cc1NS(=O)(=O)c1ccc(F)cc1F in this test?
Response line: True

Prompt line: So what was the verdict on CC(=O)N[C@@H](Cc1ccc(OP(=O)(O)O)cc1)C(=O)N[C@H]1CCC(=O)N2CCC[C@@H](C(=O)NC3CCc4ccccc43)N2C1=O (stereo partly drawn) in this test?
Response line: False

Prompt line: So what was the verdict on O=C(CN1CCN(C(=O)c2ccco2)CC1)Nc1ccc(Cl)cc1C(=O)c1ccccc1Cl in this test?
Response line: False

Prompt line: So what was the verdict on COC(=O)c1c2c(c(C)[n+]([O-])c1C)C(=O)C(NCc1ccc(O)cc1)=CC2=O in this test?
Response line: False

Prompt line: So what was the verdict on CC[C@@H](C)/C=C(C)/C=C/C(=O)c1c(O)c(-c2ccc(O)cc2)cn(OC2CC(=O)CCC(C)OC(=O)CC2O)c1=O (stereo partly drawn) in this test?
Response line: True

Prompt line: So what was the verdict on CCCCOC(=O)c1c(C)[nH]c(/C=C2\N=C(c3ccc[nH]3)C=C2OC)c1C in this test?
Response line: True

Prompt line: So what was the verdict on CC[C@@]1(O)C(=O)OCc2c1cc1n(c2=O)Cc2c-1nc1cc(F)c(C)c3c1c2[C@@H](NC(=O)CO)CC3 in this test?
Response line: True

Prompt line: So what was the verdict on CCCCCCCCCCCCCCCCCC[S+](C)CC (stereo not drawn) in this test?
Response line: False

Prompt line: So what was the verdict on Cc1cc(C)c2c(c1)N(C)c1ncnc(-n3cnc4cc(C)ccc43)c1CC2C (stereo not drawn) in this test?
Response line: False

----------
System: NCI-H23 lung
Assay: NCI tumour cell line growth inhibition, 48 h
Each item that follows carries a reported TGI.

Cc1c(Cl)c(C)c(Cl)c(O)c1Cl; 94 µM

Now for the molecule whose TGI we want.
Prompt line: Please report the recorded TGI for CN(C)C1CN(C(=O)c2cc(-c3ccc4ncnc(N5CCc6cc(F)c(Cl)cc65)c4c3)cnc2N)C1 .
Response line: > 100 µM

----------
Test system: K-562 leukemia
Assay: NCI tumour cell line growth inhibition, 48 h
quantity: TGI

O=C(CCCn1ccnc1[N+](=O)[O-])NCCn1cnc([N+](=O)[O-])n1; > 100 µM
Cc1cc(=O)oc2c(C)c3oc(CBr)cc3cc12; 46.7 µM
C[C@]12CC[C@@H]3c4ccc(OC(=O)N(CCCl)CCCl)cc4CC[C@H]3[C@@H]1CC[C@@H]2OP(=O)(O)O; > 100 µM

Now for the compound whose TGI we want.
Prompt line: Please report the recorded TGI for CC1(C)N([O-])[N+](=O)C1(C)O (centres undefined) .
Response line: > 100 µM

----------
Each item that follows carries a reported GI50.
Test system: OVCAR-3 ovarian
Assay: NCI tumour cell line growth inhibition, 48 h

Known GI50 results, listed for orientation:
COc1ccc(/C=C\c2cc(OC)c(OC)c(OC)c2)c(NS(=O)(=O)c2ccc(F)cc2)c1O; 32.2 nM
O=C(N/N=C/c1ccncc1)c1ccc(F)cc1; > 40000 nM
CC[C@@]1(O)C(=O)OCc2c1cc1n(c2=O)Cc2c-1nc1cc(F)c(C)c3c1c2[C@@H](NC(=O)CO)CC3; 60.3 nM
COc1cc2c(cc1OCCCN1CCN(C(=S)SCCC(C#N)(c3ccccc3)c3ccccc3)CC1)N=C[C@@H]1CCCN1C2=O; 488 nM
COCCn1c2c([n+](Cc3cnccn3)c1C)C(=O)c1ccccc1C2=O; < 10 nM
COc1ncc(-c2ccc3nccc(C#CCCCCC(=O)NO)c3c2)cc1NS(=O)(=O)c1ccc(F)cc1F; 65.1 nM
Cc1cc(-c2cc(OC(=O)c3ccccc3)ccc2Cl)cc2nnc(Nc3ccc(OCCN4CCCC4)cc3)nc12; 1600 nM
COc1ccc(/C=C/C(=O)/C=C(O)/C=C/c2ccc(OC)c(OC)c2)cc1OC; 2800 nM
O=C(NN1C(=O)CSC1c1c(Cl)cccc1Cl)C(O)c1ccccc1 (configuration not stated); 21300 nM
CCCCCCCCCCCCCCCCCC[S+](C)CC (configuration not stated); 1080 nM

Prompt line: OVCAR-3 ovarian / GI50 / COC(=O)c1c2c(c(C)[n+]([O-])c1C)C(=O)C(NCc1ccc(O)cc1)=CC2=O : value?
Response line: 266 nM

Prompt line: OVCAR-3 ovarian / GI50 / Nc1ncnc2c1ccn2-c1cccc(NC(=O)c2ccc(N3CCOCC3)c(C(F)(F)F)c2)c1 : value?
Response line: 3040 nM

Prompt line: OVCAR-3 ovarian / GI50 / CCCCCCCCCC[C@H](O)[C@H]1CC[C@@H]([C@@H](O)CC[C@H](O)[C@@H]2CCC(CCCCCCC[C@@H](O)CC3=C[C@H](C)OC3=O)O2)O1 (some centres not stated) : value?
Response line: 3290 nM

----------
System: CAKI-1 renal
Experiment: NCI tumour cell line growth inhibition, 48 h
quantity: TGI (µM)
# output: bare number, implied unit µM

CC(C)C(=O)/C=C/c1c(Cl)cccc1Cl; 13.8
COc1cc(C(=O)NN=C2c3ccccc3-c3ccccc32)cc(OC)c1OC; 7.92

Now for the molecule whose TGI we want.
Prompt line: Please report the recorded TGI for CCCCCCCCCCCCCCCCCC[S+](C)CC (configuration not stated) .
Response line: 1.6

----------
Test system: SF-268 CNS
Assay: NCI tumour cell line growth inhibition, 48 h
quantity: TGI

C[C@]12CC[C@H]3[C@@H](CC[C@]4(O)C[C@@H](O[C@@H]5O[C@H](CO)[C@@H](O[C@@H]6OC[C@@H](O)[C@H](O)[C@H]6O)[C@H](O)[C@H]5O)CC[C@]34C=O)[C@@]1(O)CC[C@@H]2C1=CC(=O)OC1; 2.42 µM

Prompt line: Please report the recorded TGI for COc1cc(N(CCCl)CCCl)ccc1/C=N\NC(=O)c1cccnc1 .
Response line: > 100 µM

Prompt line: Please report the recorded TGI for O=C1OC(c2ccccc2Br)=N/C1=C/c1ccccc1 .
Response line: > 100 µM

Prompt line: Please report the recorded TGI for Cc1cccc(-c2nc(-c3cnccn3)n(Cc3ccccc3)n2)c1 .
Response line: > 100 µM

Prompt line: Please report the recorded TGI for C[C@]12CCc3nn(-c4ccccc4)nc3C1CC[C@@H]1C2CC[C@]2(C)C(=O)CCC12 (some centres undefined) .
Response line: > 100 µM

Prompt line: Please report the recorded TGI for Cc1cc(N=Cc2c(CO)cnc(C)c2O)c(N=Cc2c(CO)cnc(C)c2O)cc1C .
Response line: > 100 µM

Prompt line: Please report the recorded TGI for CSC1=Nc2ccccc2N=C(c2ccccc2)C1 .
Response line: > 100 µM

Prompt line: Please report the recorded TGI for COC(=O)c1cccc(NC(=O)c2ccc(NC3=C(Cl)C(=O)N(Cc4ccccc4)C3=O)cc2)c1 .
Response line: 54.9 µM

Prompt line: Please report the recorded TGI for COc1cc(CC(=O)O)c([N+](=O)[O-])cc1OC .
Response line: > 100 µM
